ASSAY_SYSTEM: human recombinant sGC enzyme (Homo sapiens (Human), UniProt Q02108+Q02153)
METHOD: SEC competition binding assay with [3H] Compound B radioligand
CONDITION_CONTEXT: displacement of 1.6 nM [3H] Compound B, 24 h at 37° C.
MEASUREMENT_KIND: pKi
Answers are plain numbers, as −log10 of the molar value.

# example entries with known answers
- COMPOUND: "CC1(c2cccc(O)c2)C(=O)Nc2nc(-c3cn4ccnc4c(CC4CCCCC4)n3)nc(N)c21 (stereo not shown)"
  pKi: 9.40
- COMPOUND: "CC1(c2ccc(F)c(O)c2)C(=O)Nc2nc(-c3cn4ccnc4c(Cc4ccc(F)cc4)n3)nc(N)c21 (stereo not shown)"
  pKi: 9.37
- COMPOUND: "CC(C)CCc1nc(-c2nc(N)c3c(n2)NC(=O)C3(C)c2ccc(O)cc2)cn2ccnc12 (stereo not shown)"
  pKi: 8.81
- COMPOUND: "Cc1ccc(C2(C)C(=O)Nc3nc(-c4cn5ccnc5c(Cc5cccc(F)c5)n4)nc(N)c32)cc1O (stereo not shown)"
  pKi: 9.66
- COMPOUND: "CC1(c2cc(Cl)c(O)cn2)C(=O)Nc2nc(-c3cn4ccnc4c(Cc4ccccc4F)n3)nc(N)c21 (single isomer, unassigned) [Example 104-B]"
  pKi: 8.96

Provide pKi values for the following items, in order.
1. CC1(c2cc(O)c(Cl)cn2)C(=O)Nc2nc(-c3cn4ccnc4c(CC4CCCC4)n3)nc(N)c21 (stereo not shown)
2. CC1(c2ccc(Cl)c(O)c2)C(=O)Nc2nc(-c3cn4ccnc4c(Cc4cc(F)cc(F)c4)n3)nc(N)c21 (stereo not shown)

Reply text:
9.15
9.41

Please give pKi, item by item, for the list that follows.
1. CC1(c2cc(O)c(Cl)cn2)C(=O)Nc2nc(-c3cn4ccnc4c(Cc4ccc(F)cc4)n3)nc(N)c21 (stereo not shown)
2. CC1(c2cccc(O)c2)C(=O)Nc2nc(-c3cn4ccnc4c(Cc4ccccc4)n3)nc(N)c21 (stereo not shown)
3. CC1(c2cccc(O)c2)C(=O)Nc2nc(-c3cn4ccnc4c(Cc4ccc(F)cc4F)n3)nc(N)c21 (stereo not shown)
4. CC(C)CCc1nc(-c2nc(N)c3c(n2)NC(=O)C3(C)c2ccc(Cl)c(O)c2)cn2ccnc12 (stereo not shown)
5. CC1CCC(Cc2nc(-c3nc(N)c4c(n3)NC(=O)C4(C)c3ccc(O)c(Cl)c3)cn3ccnc23)CC1 (single isomer, unassigned) [Example 120-BB]
6. CC1(c2cccc(O)c2)C(=O)Nc2nc(-c3cn4ccnc4c(CCC4CCCCC4)n3)nc(N)c21 (stereo not shown)

Reply text:
1: 9.14; 2: 9.43; 3: 9.50; 4: 9.60; 5: 8.42; 6: 8.29

* * *

Exercise: for every item that follows, state its recorded Emax.
ASSAY_SYSTEM: sGC α1/β1 heterodimer (Homo sapiens (Human), UniProt Q02108+Q02153)
METHOD: Cell-based sGC functional assay (CASA assay), cGMP by HTRF
CONDITION_CONTEXT: CHO-K1, cGMP production as percentage of maximum of compound A (set to 100%); CHO-K1/sGC cells; read-out: % Activation
Description: Cell-Based sGC Functional Assay (Cyclic GMP Assay for sGC Activator: CASA Assay) Soluble guanylate cyclase (sGC) is a heme-containing enzyme that converts GTP to secondary messenger cGMP. […] A CHO-K1 cell line stably expressing the sGC α1/β1 heterodimer was generated using a standard transfection protocol. […] The level of intracellular cGMP was determined using an HTRF-based assay kit (CisBio, 62GM2PEC), which detects the displacement of a fluorescence labeled cGMP from its specific antibody. […]
Answers are plain numbers, in %.

Example entries and their recorded answers appear below.
- MOLECULE: "CC1(c2cc(O)c(Cl)cn2)C(=O)Nc2nc(-c3cn4ccnc4c(Cc4cc(F)ccc4F)n3)nc(N)c21 (centres unmarked) [Example 94-B]"
  MEASUREMENT_KIND: "Emax"
  UNIT_LABEL: "%"
  ASSAY_RESULT: 125
- MOLECULE: "Cc1cc(C2(C)C(=O)Nc3nc(-c4cn5ccnc5c(Cc5cccc(F)c5)n4)nc(N)c32)ccc1O (centres unmarked) [Example 45-A]"
  MEASUREMENT_KIND: "Emax"
  UNIT_LABEL: "%"
  ASSAY_RESULT: 120
- MOLECULE: "CC1(c2ccc(F)c(O)c2)C(=O)Nc2nc(-c3cn4ccnc4c(Cc4ccccc4F)n3)nc(N)c21 (centres unmarked) [Example 13-B]"
  MEASUREMENT_KIND: "Emax"
  UNIT_LABEL: "%"
  ASSAY_RESULT: 100
- MOLECULE: "CC1(c2cccc(O)c2)C(=O)Nc2nc(-c3cn4ccnc4c(Cc4ccc(F)cc4)n3)nc(N)c21 (centres unmarked) [Example 31-B]"
  MEASUREMENT_KIND: "Emax"
  UNIT_LABEL: "%"
  ASSAY_RESULT: 93
- MOLECULE: "CC1(c2cccc(O)c2)C(=O)Nc2nc(-c3cn4ccnc4c(CC4CCCCC4)n3)nc(N)c21 (centres unmarked) [Example 82-B]"
  MEASUREMENT_KIND: "Emax"
  UNIT_LABEL: "%"
  ASSAY_RESULT: 111
- MOLECULE: "CC1(c2ncc(Cl)c(O)c2Cl)C(=O)Nc2nc(-c3cn4ccnc4c(Cc4cc(F)cc(F)c4)n3)nc(N)c21 (centres unmarked) [Example 73-A]"
  MEASUREMENT_KIND: "Emax"
  UNIT_LABEL: "%"
  ASSAY_RESULT: 81
- MOLECULE: "CC(C)CCc1nc(-c2nc(N)c3c(n2)NC(=O)C3(C)c2cccc(O)c2)cn2ccnc12 (centres unmarked) [Example 59-B]"
  MEASUREMENT_KIND: "Emax"
  UNIT_LABEL: "%"
  ASSAY_RESULT: 109
- MOLECULE: "CC1(c2cc(O)c(Cl)c(F)c2)C(=O)Nc2nc(-c3cn4ccnc4c(Cc4cc(F)cc(F)c4)n3)nc(N)c21 (centres unmarked) [Example 16-B]"
  MEASUREMENT_KIND: "Emax"
  UNIT_LABEL: "%"
  ASSAY_RESULT: 94

Parameters: items (list). Returns: Emax for each item.
1. CC1(c2ccc(O)c(Cl)c2)C(=O)Nc2nc(-c3cn4ccnc4c(CC4CCCCC4)n3)nc(N)c21 (centres unmarked) [Example 89-B]
2. CCCCc1nc(-c2nc(N)c3c(n2)NC(=O)C3(C)c2ccc(C(F)(F)F)c(O)c2)cn2ncnc12 (centres unmarked) [Example 61-B]
3. Cc1cccc(Cc2nc(-c3nc(N)c4c(n3)NC(=O)C4(C)c3cccc(O)c3)cn3ccnc23)c1 (centres unmarked) [Example 122-B]
4. CC1(c2ccc(O)c(F)c2)C(=O)Nc2nc(-c3cn4ccnc4c(CCC(F)(F)C(F)(F)F)n3)nc(N)c21 (racemic) [Example 117-B]
5. CN1CCN(c2nc(-c3cn4ccnc4c(Cc4ccc(F)cc4)n3)nc3c2C(C)(c2ccc(Cl)c(O)c2)C(=O)N3)CC1 (centres unmarked) [Example 134-A]
6. CC1(c2ccc(Cl)c(O)c2Cl)C(=O)Nc2nc(-c3cn4ncnc4c(CC4CCCCC4)n3)nc(N)c21 (centres unmarked) [Example 67-A]

Reply text:
[127, 105, 106, 94, 102, 134]
